biological target: Acetylcholinesterase (AChE) (Electrophorus electricus); construct: Acetylcholinesterase (AChE) from electric eel; from tissue; host or cells: electric eel; assay: biochemical; settings: Selectivity index: IC50 for BChE/IC50 for AChE
Sequence (O42275 24-633): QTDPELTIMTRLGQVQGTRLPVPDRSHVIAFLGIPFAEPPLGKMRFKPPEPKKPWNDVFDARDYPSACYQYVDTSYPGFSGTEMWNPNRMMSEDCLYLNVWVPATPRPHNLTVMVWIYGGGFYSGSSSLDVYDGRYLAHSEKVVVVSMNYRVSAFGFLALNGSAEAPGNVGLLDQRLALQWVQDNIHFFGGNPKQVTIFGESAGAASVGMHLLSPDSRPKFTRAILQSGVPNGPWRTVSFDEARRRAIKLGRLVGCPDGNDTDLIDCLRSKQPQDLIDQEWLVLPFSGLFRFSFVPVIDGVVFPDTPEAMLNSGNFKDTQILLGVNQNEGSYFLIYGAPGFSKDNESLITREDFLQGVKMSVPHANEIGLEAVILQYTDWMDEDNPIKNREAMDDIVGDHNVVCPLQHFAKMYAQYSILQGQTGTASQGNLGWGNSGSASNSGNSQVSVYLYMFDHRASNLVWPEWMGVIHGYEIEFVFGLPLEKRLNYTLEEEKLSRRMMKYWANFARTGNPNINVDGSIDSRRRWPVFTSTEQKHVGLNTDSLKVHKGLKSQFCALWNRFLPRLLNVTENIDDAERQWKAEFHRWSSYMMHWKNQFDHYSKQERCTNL
measured.property: SI for AChE

• O=C1C(=Cc2ccc(N3CCOCC3)cc2)SC(=NN2CCOCC2)N1c1ccccc1 [Compound 14] = 1.34
• O=C1C(=Cc2ccccn2)SC(=NN2CCOCC2)N1c1ccccc1 [Compound 21] = 1.36
• COc1ccc(C=C2SC(=NN3CCOCC3)N(c3ccccc3)C2=O)cc1 [Compound 6] = 1.27
• O=C1C(=Cc2ccco2)SC(=NN2CCOCC2)N1c1ccccc1 [Compound 15] = 1.37
• COc1cc(C=C2SC(=NN3CCOCC3)N(c3ccccc3)C2=O)cc(OC)c1OC [Compound 8] = 1.41
• O=C1C(=Cc2ccsc2)SC(=NN2CCOCC2)N1c1ccccc1 [Compound 16] = 1.46
• CN(C)c1ccc(C=C2SC(=NN3CCOCC3)N(c3ccccc3)C2=O)cc1 [Compound 10] = 1.42
• O=C1C(=Cc2ccc(Br)cc2)SC(=NN2CCOCC2)N1c1ccccc1 [Compound 4] = 1.43
• O=C1C(=Cc2ccc(N3CCCCC3)cc2)SC(=NN2CCOCC2)N1c1ccccc1 [Compound 13] = 1.61
• O=C1C(=Cc2ccc3ccccc3n2)SC(=NN2CCOCC2)N1c1ccccc1 [Compound 26] = 1.30
• O=C1CSC(=NN2CCOCC2)N1c1ccccc1 [Compound 2] = 1.50
• O=C1C(=Cc2ccc(O)cc2)SC(=NN2CCOCC2)N1c1ccccc1 [Compound 5] = 1.38
• O=C1C(=Cc2nccs2)SC(=NN2CCOCC2)N1c1ccccc1 [Compound 20] = 1.26
• O=C1C(=Cc2cccnc2)SC(=NN2CCOCC2)N1c1ccccc1 [Compound 22] = 1.33
• S=C(Nc1ccccc1)NN1CCOCC1 [Compound 1, 1-Morpholino-3-phenylthiyourea] = 0.91
• COc1ccc(C=C2SC(=NN3CCOCC3)N(c3ccccc3)C2=O)cc1OC [Compound 7] = 1.34
